- Tested on: UACC-257
- assayText: NCI tumour cell line growth inhibition, 48 h
Activity calls are given as the source filed them. No stated cut-off is given here; in the data, active = GI50 up to about 1.1 µM and inactive = higher.
measuredQuantity: GI50

[[record]]
molecule = "COc1ccc(C(SC2C(O)C(CO)OC2n2ccc(N)nc2=O)(c2ccccc2)c2ccc(OC)cc2)cc1 (stereo not given)"
reportedmeasurement = "18.6 µM (inactive)"

[[record]]
molecule = "Cc1c(C)c2c(c(N)c1C#N)C(=O)N(OS(=O)(=O)c1ccccc1)C2=O"
reportedmeasurement = "24.4 µM (inactive)"

[[record]]
molecule = "CC(C)=CCc1c(OC(=O)c2c(C)cc(O)cc2O)cc(CO)c(CO)c1O"
reportedmeasurement = "29.9 µM (inactive)"

[[record]]
molecule = "COc1ccc(CCNCCCC2c3ccccc3-c3ccccc32)cc1OC"
reportedmeasurement = "14.3 µM (inactive)"

[[record]]
molecule = "C#CCn1c(=O)c(C#N)c(O)c2cc3ccccc3nc21"
reportedmeasurement = "> 100 µM (inactive)"


The measurements presented in this section are drawn from ChEMBL document CHEMBL1201862.
